pIC50: −log10 of the molar value.
What follows is literature data on pIC50 for BTK (Homo sapiens, UniProt Q06187).

Some compounds with recorded pIC50:
C=CC(=O)N1CCC[C@@H](n2nc(-c3ccc(C(=O)Nc4ccccn4)cc3Cl)c3c(N)ncc(-c4cnn(C)c4)c32)C1; 8.70
Cn1cc(-c2cn3nccc3c(-c3ccc(CNC(=O)c4cn(C(C)(C)C)nn4)cc3)n2)cn1; > 9.00
O=C(CNc1ccc(F)cc1)N1CCC[C@H](Nc2ncnc3[nH]ncc23)C1; < 5.00

Entry under review: O=C(CNC1CCCC1)NC1CCCN(c2ncnc3[nH]ccc23)C1 (stereo not shown) . Reported pIC50?
5.00 to 6.00

Entry under review: `CCNc1nccc(-c2ccc(CNC(=O)c3cnc(C(C)(C)C)s3)c(C)c2)n1` . Reported pIC50?
7.00 to 8.00

Entry under review: `Cc1cc(-c2ccnc(Nc3cnn(C4CC4)c3)n2)ccc1CNC(=O)c1cnn(C(C)(C)C)c1` . Reported pIC50?
> 8.00

Entry under review: `Cc1cc(-c2nc(C(=O)Nc3cn4cc(CCC(C)(C)O)nc4cc3-c3c(F)cccc3F)co2)ccn1` . Reported pIC50?
7.62
